Form field: melting point (one value per entry).

Reference set (8 entries):
>>> resultvalue("O=C(O)C1=Cc2cc(S(=O)(=O)NCc3ccco3)ccc2OC1C(F)(F)F (stereo not given)")
"170 to 173 °C"
>>> resultvalue("Cn1ccnc1Sc1ccc(Cl)cc1N")
"127 to 129 °C"
>>> resultvalue("Nc1nc(NCCc2ccc(Cl)cc2)sc1C(=O)c1ccccc1[N+](=O)[O-]")
"117 to 120 °C"
>>> resultvalue("CC1(C)C(C=C(Cl)Cl)C1C(=O)O (stereo not given)")
"86 °C"
>>> resultvalue("CN1CCC(=O)C(C2c3ccccc3Oc3ccccc32)C1 (stereo not given)")
"160 to 162 °C"
>>> resultvalue("O=C1Nc2ccccc2N(C(=O)N2CCCC(CCCN3CCCCC3)C2)c2ncccc21 (stereo not given)")
"166 to 167 °C"
>>> resultvalue("CCCCCCCN(CCN1CCN(CCSc2nc3ccccc3o2)CC1)C(=O)Nc1c(C(C)C)cccc1C(C)C")
"110 to 111 °C"
>>> resultvalue("O=C(O)CCCCC(=NOCc1ccc(OCc2noc(-c3ccccc3)n2)cc1)c1ccccc1")
"88 to 89 °C"

Query: Fill in the blank: the reported melting point of `COc1ccc(C(=O)Nc2c(Cl)cncc2Cl)c2c3cc(Cl)ccc3n(Cc3ccc(F)cc3)c12` is ____.
Response: 249 to 250 °C

Query: Fill in the blank: the reported melting point of `CCCCc1cc(OCc2ccc(C#N)cc2)c2ccccc2n1` is ____.
Response: 74 °C

Query: Fill in the blank: the reported melting point of `CCNC(=O)CNc1c(C#N)cnn1-c1ccc(C(F)(F)F)cc1Cl` is ____.
Response: 144 to 145 °C

* * *

Form field: melting point (one value per entry).

>>> resultvalue("COC(OC)C(=O)NCc1ccc(C)cc1")
"45.8 °C"

Query: Fill in the blank: the reported melting point of `CCCc1c(C)nc2ccc(C(=O)OC)cn2c1=O` is ____.
Response: 98 to 99 °C

Query: Fill in the blank: the reported melting point of `CC(=O)NCc1ccc(CN2CCN(c3cc(Cl)nc(Cl)n3)CC2)cc1` is ____.
Response: 165 to 166 °C

Query: Fill in the blank: the reported melting point of `Cc1c(-c2cccc(C#N)c2F)sc2nc(N)[nH]c(=O)c12` is ____.
Response: 350 to 370 °C

Query: Fill in the blank: the reported melting point of `C=CCCO[C@@H](Cc1ccc(OCCc2nc(C(C)(C)C)oc2C)c2ccsc12)C(=O)O` is ____.
Response: 70 to 71 °C

Query: Fill in the blank: the reported melting point of `O=c1[nH]cc(Oc2ccccc2)cc1-c1csc(-c2ccncc2)n1` is ____.
Response: 243 to 245 °C

* * *

valueType: melting point

Query: Fill in the blank: the reported melting point of `COc1ccc(S(=O)(=O)c2c(C(C)C)n(C)c3ccccc23)cc1` is ____.
Response: 125 °C

Query: Fill in the blank: the reported melting point of `O=C(O)c1cc(=O)c2c(o1)-c1ccccc1SC2` is ____.
Response: 251 to 253 °C

Query: Fill in the blank: the reported melting point of `NS(=O)(=O)c1cscn1` is ____.
Response: 142 to 146 °C

Query: Fill in the blank: the reported melting point of Cc1nc2c(C(=O)NC(C)(C(N)=O)C(C)C)c(C(=O)O)ccc2n1Cc1ccccc1 (stereo unspecified) is ____.
Response: 145 to 150 °C

Query: Fill in the blank: the reported melting point of `CSC1=Nc2ccc(C)cc2Cn2nnnc21` is ____.
Response: 157 to 160 °C

Query: Fill in the blank: the reported melting point of `Cc1oc(-c2ccc(F)cc2)cc1C(=O)O` is ____.
Response: 217 to 218 °C

* * *

Form field: melting point (one value per entry).

Query: Fill in the blank: the reported melting point of `CC(C)Nc1nc(-n2cc(C(=O)O)c(=O)c3cc(F)c(F)c(Cl)c32)c(F)cc1F` is ____.
Response: 226 to 230 °C

Query: Fill in the blank: the reported melting point of `Cc1cccc(Cn2c(NC3CCN(CCNc4ncccn4)CC3)nc3cccnc32)n1` is ____.
Response: 187 °C

Query: Fill in the blank: the reported melting point of `Cc1cccc(C(F)(F)C(F)(F)c2ccccc2)c1C` is ____.
Response: 110 to 112 °C

Query: Fill in the blank: the reported melting point of COCOC1=C(C(N)=O)CC(C#N)(c2cccc(OCC3CC3)c2)CC1 (stereo not given) is ____.
Response: 120 to 122 °C

Query: Fill in the blank: the reported melting point of `O=c1oc(-c2ccc(S(=O)(=O)c3ccccc3)cc2)cc(O)c1SCCc1ccccc1` is ____.
Response: 194 to 195 °C

* * *

Form field: melting point (one value per entry).

Reference set (5 entries):
>>> resultvalue("CCc1nnc(-c2ccc(-c3ccccc3)cc2)n1-c1cccc2cnccc12")
"228 to 230 °C"
>>> resultvalue("CCOC(=O)C(=O)c1ccc2c(c1)CCO2")
"139 to 141 °C"
>>> resultvalue("Cc1cccc(NC(=O)NC(CC(N)=O)C(=O)N(CC(=O)OC(C)(C)C)c2ccccc2)c1 (racemic)")
"192 °C"
>>> resultvalue("CCCc1cc(=O)[nH]c2cc(OC)cc(OC)c12")
"193 to 196 °C"
>>> resultvalue("O=C(O)c1cc(I)c(F)c(F)c1F")
"167 to 171 °C"

Query: Fill in the blank: the reported melting point of `CC(C)CCNCCOc1ccc2ccccc2c1` is ____.
Response: 91 °C

Query: Fill in the blank: the reported melting point of `O=C(O)Cc1ccc(OCc2ccccc2)c(C(=O)O)c1` is ____.
Response: 143 to 145 °C

Query: Fill in the blank: the reported melting point of `CC(C)(C)c1nc2c(Cl)ccc(-n3c(=O)cc(C(F)(F)F)n(N)c3=O)c2o1` is ____.
Response: 104 to 106 °C

Query: Fill in the blank: the reported melting point of `CCC(CC)(OC)c1ccc(Cl)c2nc3n(c12)CCCN3c1ccc(Cl)cc1Cl` is ____.
Response: 124 to 125 °C

Query: Fill in the blank: the reported melting point of O=C1NC(=O)C2(C(=O)N(Cc3ccc(Cl)c(Cl)c3)c3ccccc32)N1C(=O)c1ccccc1 (stereo not given) is ____.
Response: 251 to 253 °C

Query: Fill in the blank: the reported melting point of `O=C(O)Cc1c(C(=O)O)c2cc(Oc3ccc(C(F)(F)F)cn3)ccc2n1-c1ccc(OC(F)(F)F)cc1` is ____.
Response: 203 °C

Query: Fill in the blank: the reported melting point of `c1ccc(-c2nn3ccccc3c2-c2ccnnc2)cc1` is ____.
Response: 204 to 205 °C

Query: Fill in the blank: the reported melting point of `O=C1c2ccccc2C(=O)N1CC(=O)N1Cc2ccccc2Oc2ccc(Cl)cc21` is ____.
Response: 184 to 185 °C

* * *

valueType: melting point

Reference set (3 entries):
>>> resultvalue("N#Cc1cnn2c1N(C(=O)CCCl)CC=C2c1cccc(C(F)(F)F)c1")
"183 to 185 °C"
>>> resultvalue("Cn1ncc(C=O)c1-c1cccnc1")
"118 to 119 °C"
>>> resultvalue("Oc1ccc(C2COc3c(ccc(O)c3O)C2)cc1 (stereo not given)")
"225 to 226 °C"

Query: Fill in the blank: the reported melting point of `CCc1nc(-c2cccc(C)c2)c(-c2ccnc(NC(=O)Cc3ccccc3)c2)s1` is ____.
Response: 107 to 108 °C

Query: Fill in the blank: the reported melting point of C1=C(c2c[nH]c3ccccc23)CCN(CC2COc3ccc4c(c3O2)CCCO4)C1 (stereo not given) is ____.
Response: 186 to 187 °C

* * *

valueType: melting point

Reference set (9 entries):
>>> resultvalue("CCCN(Cc1ccc(-c2ccccc2-c2nc(=O)o[nH]2)cc1)c1nc(C)ncc1C(=O)OCC")
"176 to 177 °C"
>>> resultvalue("O=C(O)CN1C(=O)C(=Cc2ccc(O)cc2)SC1=S")
"> 300 °C"
>>> resultvalue("O=C(Nc1ccccc1)NN1CCc2[nH]c(=O)n3nc(-c4ccccc4F)nc3c2C1")
"291 to 293 °C"
>>> resultvalue("CCOC(=O)N1CCC(c2cc3cc(OC)cc(Br)c3o2)CC1")
"85 °C"
>>> resultvalue("CCCS(=O)(=O)Nc1c(C(=O)c2ccccc2)[nH]c2cc(Cl)ccc12")
"164 to 167 °C"
>>> resultvalue("CC(C)(C)OC(=O)N1CCC(Oc2ccc(C#N)c(/C=C/N3CCCC3)c2)CC1")
"115 to 117 °C"
>>> resultvalue("COC(=O)Nc1ccc(CCc2cc(OC)ccc2OC)cc1C(=O)OC")
"80 to 82 °C"
>>> resultvalue("CC(C)(C)C(=O)Nc1ccccn1")
"74 to 76 °C"
>>> resultvalue("CC(C)c1[nH]c(Cl)c(C#N)c1SC#N")
"159 °C"

As a next step, examine the compound that follows.
Query: Fill in the blank: the reported melting point of `COc1cc(C)nc(Nc2ccccc2)n1` is ____.
Response: 75 to 76 °C
